- SETTINGS: human gut metagenome, 24 h, 2 µM; note: call rule not given here
REPORTED_PROPERTY: Bacterial Biotransformation

Examples with answers:
1) COc1ccnc(C[S+]([O-])c2nc3ccc(OC(F)F)cc3[nH]2)c1OC (stereo not drawn) : Compound metabolized
2) CC(=O)OCC(=O)[C@@]1(OC(C)=O)[C@@H](C)C[C@H]2[C@@H]3C[C@H](F)C4=CC(=O)C=C[C@]4(C)[C@@]3(F)[C@@H](O)C[C@@]21C [DIFLORASONE DIACETATE] : Compound metabolized
3) OC(c1cc(C(F)(F)F)nc2c(C(F)(F)F)cccc12)C1CCCCN1 (stereo not drawn) : Compound metabolized
4) CCCC(C)(COC(N)=O)COC(=O)NC(C)C (stereo not drawn) : Compound metabolized
5) Br.COc1ccc2c(c1)[C@]13CCCC[C@@H]1[C@H](C2)N(C)CC3.O [DEXTROMETHORPHAN HYDROBROMIDE] : Compound metabolized

Batch lookup, Bacterial Biotransformation per entry.
1. O=C1CC2(CCCC2)CC(=O)N1CCCCN1CCN(c2ncccn2)CC1
2. CN(C)C(=O)Oc1cc(OC(=O)N(C)C)cc(C(O)CNC(C)(C)C)c1 (stereo not drawn)
3. CN(C)CCOC(C)(c1ccccc1)c1ccccn1.O=C(O)CCC(=O)O (stereo not drawn) [DOXYLAMINE SUCCINATE]

[A]
1. Compound NOT metabolized
2. Compound metabolized
3. Compound NOT metabolized

###

- TEST_NAME: The drug is tested on WLS-098 corresponding to human gut metagenome with ENA study accession number: PRJEB37062 and ENA sample accession number: ERS12561754 for biotransformation under anaerobic condition. The drug concentrations were measured over 9 timepoints collected between 0 and 24 hours of incubation by liquid-chromatography-coupled mass spectrometry (LC–MS)
- SETTINGS: 2 µM
REPORTED_PROPERTY: Bacterial Biotransformation

Examples with answers:
1) O=C(O)c1cc(/N=N/c2ccc(S(=O)(=O)Nc3ccccn3)cc2)ccc1O [SULFASALAZINE] : Compound metabolized
2) C[N+]12CCC(CC1)C(OC(=O)C(O)(c1ccccc1)c1ccccc1)C2.[Br-] (stereo not drawn) [CLIDINIUM BROMIDE] : Compound NOT metabolized
3) CC(CCc1ccccc1)NCC(O)c1ccc(O)c(C(N)=O)c1 (stereo not drawn) [LABETALOL] : Compound NOT metabolized
4) CC(C)c1c(CN(C)C(C)Cc2ccccc2)n(C)n(-c2ccccc2)c1=O (stereo not drawn) [FAMPROFAZONE] : Compound metabolized
5) CN1CCN(C2=Nc3ccccc3Oc3ccc(Cl)cc32)CC1.O=C(O)CCC(=O)O [LOXAPINE SUCCINATE] : Compound NOT metabolized

Batch lookup, Bacterial Biotransformation per entry.
1. Nc1nc(NC2CC2)c2ncn([C@H]3C=C[C@@H](CO)C3)c2n1.Nc1nc(NC2CC2)c2ncn([C@H]3C=C[C@@H](CO)C3)c2n1.O=S(=O)(O)O [ABACAVIR SULFATE]
2. CCOC(=O)[C@H](CCc1ccccc1)N[C@@H](C)C(=O)N1Cc2ccccc2C[C@H]1C(=O)O
3. Nc1nnc(-c2cccc(Cl)c2Cl)c(N)n1 [LAMOTRIGINE]

[A]
1: Compound metabolized; 2: Compound metabolized; 3: Compound metabolized

###

- TEST_NAME: The drug is tested on Z-022 corresponding to mouse gut metagenome with ENA study accession number: PRJEB37062 and ENA sample accession number: ERS12561821 for biotransformation under anaerobic condition. The drug concentrations were measured over 9 timepoints collected between 0 and 24 hours of incubation by liquid-chromatography-coupled mass spectrometry (LC–MS)
- SETTINGS: 2 µM
REPORTED_PROPERTY: Bacterial Biotransformation

Examples with answers:
1) N=C(N)NC(=O)Cc1c(Cl)cccc1Cl [GUANFACINE] : Compound NOT metabolized
2) C=CC[C@@H]1/C=C(\C)C[C@H](C)C[C@H](OC)[C@H]2O[C@@](O)(C(=O)C(=O)N3CCCC[C@H]3C(=O)O[C@H](/C(C)=C/[C@@H]3CC[C@@H](O)[C@H](OC)C3)[C@H](C)[C@@H](O)CC1=O)[C@H](C)C[C@@H]2OC.O [TACROLIMUS] : Compound NOT metabolized
3) CCN(CC)CCOC(=O)C1(C2CCCCC2)CCCCC1 [DICYCLOMINE] : Compound metabolized
4) Clc1cccc(Cl)c1N=C1NCCN1 [CLONIDINE] : Compound NOT metabolized
5) OC(c1cc(C(F)(F)F)nc2c(C(F)(F)F)cccc12)C1CCCCN1 (stereo not drawn) [MEFLOQUINE] : Compound metabolized
6) CC(CCc1ccccc1)NCC(O)c1ccc(O)c(C(N)=O)c1 (stereo not drawn) [LABETALOL] : Compound metabolized
7) O=C(CCCN1CCC2(CC1)C(=O)NCN2c1ccccc1)c1ccc(F)cc1 [SPIPERONE] : Compound NOT metabolized
8) Nc1nnc(-c2cccc(Cl)c2Cl)c(N)n1 [LAMOTRIGINE] : Compound NOT metabolized
9) CCOC(=O)[C@H](CCc1ccccc1)N[C@@H](C)C(=O)N1Cc2ccccc2C[C@H]1C(=O)O : Compound NOT metabolized
10) CCCCCNC(=N)N/N=C/c1c[nH]c2ccc(OC)cc12.O=C(O)/C=C\C(=O)O [TEGASEROD MALEATE] : Compound NOT metabolized

Batch lookup, Bacterial Biotransformation per entry.
1. CC(NC(C)(C)C)C(=O)c1cccc(Cl)c1 (stereo not drawn) [BUPROPION]
2. CN(C)C(=O)Oc1cccc([N+](C)(C)C)c1.[Br-] [NEOSTIGMINE BROMIDE]

[A]
["Compound NOT metabolized", "Compound NOT metabolized"]

Batch lookup, Bacterial Biotransformation per entry.
1. Cc1ccccc1C(OCCN(C)C)c1ccccc1.O=C(O)CC(O)(CC(=O)O)C(=O)O (stereo not drawn) [ORPHENADRINE CITRATE]
2. CCS(=O)(=O)CCn1c([N+](=O)[O-])cnc1C [TINIDAZOLE]
3. CCOC(=O)C1=C[C@]2(CC)CCCN3CCc4c(n1c1ccccc41)[C@@H]32 [VINPOCETINE]
4. CC1Cc2ccccc2N1NC(=O)c1ccc(Cl)c(S(N)(=O)=O)c1 (stereo not drawn) [INDAPAMIDE]
5. CC(=O)OCC(CCn1cnc2cnc(N)nc21)COC(C)=O [FAMCICLOVIR]

[A]
1. Compound NOT metabolized
2. Compound metabolized
3. Compound metabolized
4. Compound NOT metabolized
5. Compound NOT metabolized

[Q] // returns reported Bacterial Biotransformation for input COC(=O)C(c1ccccc1)C1CCCCN1 (stereo not drawn) [METHYLPHENIDATE]
[A] Compound NOT metabolized

###

- TEST_NAME: The drug is tested on WLS-086 corresponding to human gut metagenome with ENA study accession number: PRJEB37062 and ENA sample accession number: ERS12561752 for biotransformation under anaerobic condition. The drug concentrations were measured over 9 timepoints collected between 0 and 24 hours of incubation by liquid-chromatography-coupled mass spectrometry (LC–MS)
- SETTINGS: 2 µM
REPORTED_PROPERTY: Bacterial Biotransformation

Examples with answers:
1. CC(=O)OCC(CCn1cnc2cnc(N)nc21)COC(C)=O [FAMCICLOVIR] : Compound metabolized
2. CN1[C@@H]2CC[C@H]1C[C@@H](OC(=O)[C@H](CO)c1ccccc1)C2 [HYOSCYAMINE] : Compound metabolized
3. CCc1cccc2c3c([nH]c12)C(CC)(CC(=O)O)OCC3 (configuration not stated) [ETODOLAC] : Compound metabolized
4. CCN(CC)CCOC(=O)C1(C2CCCCC2)CCCCC1 [DICYCLOMINE] : Compound metabolized
5. CC(C)(C)NCC(O)c1cc(Cl)c(N)c(Cl)c1 (configuration not stated) [CLENBUTEROL] : Compound NOT metabolized
6. CN(C/C=C/C#CC(C)(C)C)Cc1cccc2ccccc12 [TERBINAFINE] : Compound metabolized
7. CCCCCNC(=N)N/N=C/c1c[nH]c2ccc(OC)cc12.O=C(O)/C=C\C(=O)O [TEGASEROD MALEATE] : Compound NOT metabolized
8. N#Cc1ccc2c(c1)N(CCCN1CCC(O)CC1)c1ccccc1S2 [PERICIAZINE] : Compound metabolized

Batch lookup, Bacterial Biotransformation per entry.
1. CC(=O)CCCCn1c(=O)c2c(ncn2C)n(C)c1=O [PENTOXIFYLLINE]
2. CC(C)[C@H]1CC[C@H](C(=O)N[C@H](Cc2ccccc2)C(=O)O)CC1 [NATEGLINIDE]
3. CC(NC(C)(C)C)C(=O)c1cccc(Cl)c1 (configuration not stated) [BUPROPION]
4. CCCCC(=O)O[C@]1(C(=O)CO)[C@@H](C)C[C@H]2[C@@H]3CCC4=CC(=O)C=C[C@]4(C)[C@@]3(F)[C@@H](O)C[C@@]21C [BETAMETHASONE VALERATE]

[A]
1: Compound metabolized; 2: Compound metabolized; 3: Compound NOT metabolized; 4: Compound metabolized

Attribution: ChEMBL document CHEMBL5724914
